Items are presented alongside their recorded IC50.
Molecular target: purified tubulin (Sus scrofa, UniProt P02550+P02554)
Sequence (P02554 whole entry): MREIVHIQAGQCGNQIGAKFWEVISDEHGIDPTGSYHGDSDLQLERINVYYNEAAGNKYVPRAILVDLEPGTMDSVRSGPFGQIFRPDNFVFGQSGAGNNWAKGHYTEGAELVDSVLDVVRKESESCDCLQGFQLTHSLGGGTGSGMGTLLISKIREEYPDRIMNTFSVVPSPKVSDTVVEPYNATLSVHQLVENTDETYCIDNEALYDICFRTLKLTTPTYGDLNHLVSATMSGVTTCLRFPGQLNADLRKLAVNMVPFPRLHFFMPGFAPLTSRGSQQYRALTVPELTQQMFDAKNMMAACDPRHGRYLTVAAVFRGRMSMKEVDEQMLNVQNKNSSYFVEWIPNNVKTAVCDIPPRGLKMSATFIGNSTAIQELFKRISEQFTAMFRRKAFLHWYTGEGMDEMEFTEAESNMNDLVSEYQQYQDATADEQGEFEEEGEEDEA
Sequence (P02550 whole entry): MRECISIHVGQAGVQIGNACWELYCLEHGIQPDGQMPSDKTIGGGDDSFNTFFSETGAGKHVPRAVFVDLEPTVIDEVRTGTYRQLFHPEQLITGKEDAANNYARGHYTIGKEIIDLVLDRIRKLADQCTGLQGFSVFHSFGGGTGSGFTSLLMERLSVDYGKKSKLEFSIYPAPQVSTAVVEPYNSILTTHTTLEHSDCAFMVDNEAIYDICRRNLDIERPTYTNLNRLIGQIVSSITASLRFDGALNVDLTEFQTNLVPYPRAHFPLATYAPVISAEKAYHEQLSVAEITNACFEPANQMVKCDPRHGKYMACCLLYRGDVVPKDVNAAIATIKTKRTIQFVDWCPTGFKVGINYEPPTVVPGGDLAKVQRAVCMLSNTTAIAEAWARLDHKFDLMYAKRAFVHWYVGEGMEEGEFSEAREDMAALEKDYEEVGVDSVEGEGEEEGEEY
Experiment: Tubulin polymerisation assay (CytoDYNAMIX Screen kit, absorbance at 340 nm)
Conditions: tubulin polymerization
Counter-ions that a name gives are not always drawn.
Answer in µM, number only, no unit symbol.

Example results:
COc1ccc(/C=C\c2cc(OC)c(OC)c(OC)c2)cc1N [AVE8063, 3-amino-deoxycombretastatin A-4, reference compound] : 1.07
CCOc1ccc2c(Cc3cc(OC)c(OCC)c(OC)c3)cncc2c1N [Compound 18, dihydrochloride] : 0.99
CCOc1ccc2c(C(=O)c3cc(OC)c(OCC)c(OC)c3)cncc2c1N [Compound 58, hydrochloride] : 3.49
CCOc1ccc2c(Cc3cc(OC)c(OC)c(OC)c3)cncc2c1O [Compound 1, hydrochloride] : 1.19
COc1cc(Cc2cncc3c(OC)c(OC)ccc23)cc(OC)c1OC [Compound 10, hydrochloride] : 3.44

Looking up CCOc1ccc2c(C(=O)c3cc(OC)c(OC)c(OC)c3)cncc2c1 [Compound 40, hydrochloride] , I found its IC50 recorded as 1.13

Lab note: CCOc1cc(Cc2cncc3c(O)c(OCC)ccc23)cc(OC)c1OC [Compound 15, hydrochloride] gave IC50 of 0.97

* * *

Tested on: K562 cell line
Test: MTT assay: cytotoxicity against the K562 cell line
Assay type: cell-based
Conditions: Homo sapiens, K562 cells, 72 h, growth inhibition
Structures can show the parent of a compound that is named as a salt.
Parameter measured: IC50 (nM)
# number only, unit nM dropped from output

CCOc1ccc2c(C(=O)c3cc(OC)c(OC)c(OC)c3)cncc2c1NC(=O)OCC(C)C [Compound 113, hydrochloride] : 231
CCOc1ccc2c(Cc3cc(OC)c(OC)c(OC)c3)cncc2c1NS(=O)(=O)NC(=O)OC(C)(C)C : 147
COc1ccc2c(Cc3cc(OC)c(OC)c(OC)c3)cncc2c1 [Compound 27, hydrochloride] : 864
CCOc1ccc2c(Cc3cc(OC)c(OCC4CCC4)c(OC)c3)cncc2c1O [Compound 34, hydrochloride] : 65
CCOc1ccc2c(Cc3cc(OC)c(OCCOC)c(OC)c3)cncc2c1O [Compound 22, hydrochloride] : 142

The molecule identified as CCCOc1c(OC)cc(C(=O)c2cncc3c(N)c(OCC)ccc23)cc1OC [Compound 66, hydrochloride] registered its IC50 at 4.27

// recorded IC50 for CCCCOc1c(OC)cc(Cc2cncc3c(O)c(OCC)ccc23)cc1OC [Compound 38, hydrochloride] : 30.4

* * *

Target: purified tubulin (Sus scrofa, UniProt P02550+P02554)
Construct: purchased Cytoskeleton #BK006P
Assay: Tubulin polymerisation assay (CytoDYNAMIX Screen kit, absorbance at 340 nm)
Assay type: biochemical
Details: 5 μM compound, 4 mg/ml tubulin; read-out: % Inhibition of tubulin polymerization at 5 μM
Where a name gives a salt, the structure may show the parent alone.
The threshold is inclusive: inhibition at 5 µM of exactly 60% counts as Satisfied; values below receive Not satisfied.

CCCOc1c(OC)cc(C(=O)c2cncc3c(O)c(OCC)ccc23)cc1OC [Compound 67, hydrochloride] : Not satisfied
CCOc1ccc2c(Cc3cc(OC)c(OC)c(OC)c3)cncc2c1OS(N)(=O)=O [Compound 21, hydrochloride] : Satisfied

Please tell me: is the compound CCCOc1c(OC)cc(Cc2cncc3c(N)c(OCC)ccc23)cc1OC [Compound 64, dihydrochloride] at or over 60% in terms of inhibition at 5 µM?
Satisfied

Entry "CCCOc1c(OC)cc(C(=O)c2cncc3c(OC(C)=O)c(OCC)ccc23)cc1OC" : is its inhibition at 5 µM no less than 60%?
Not satisfied

* * *

Tested on: K562 cell line
Experiment: MTT assay: cytotoxicity against the K562 cell line
Type: cell-based
Details: Homo sapiens, K562 cells, 72 h, growth inhibition
Counter-ions that a name gives are not always drawn.
Parameter measured: pIC50
Entry type: numeric. Quantity: pIC50, the -log10 of concentration in molar units.

# annotated cases, reported pIC50 shown
CCOc1ccc2c(Cc3cc(OC)c(OC)c(OC)c3)cncc2c1N [Compound 3, dihydrochloride] : 7.97
CCOc1ccc2c(Cc3cc(OC)c(OC)c(OC)c3Cl)cncc2c1O [Compound 110, hydrochloride] : 7.17
CCOc1ccc2c(C(=O)c3cc(OC)c(OCC)c(OC)c3)cncc2c1OC [Compound 47, hydrochloride] : 6.89

The reported value for CCOc1ccc2c(C(=O)c3cc(OC)c(OCC)c(OC)c3)cncc2c1OS(N)(=O)=O [Compound 57] in terms of pIC50 is 8.57

response.value for CCOc1ccc2c(C(=O)c3cc(OC)c(OCC)c(OC)c3)cncc2c1NS(N)(=O)=O [Compound 59] (field: pIC50) = 8.15

The recorded pIC50 for CCOc1ccc2c(Cc3cc(OC)c(OC)c(OC)c3)cncc2c1 [Compound 16, hydrochloride] is 6.36

* * *

Tested on: Endothelial cells (HUVEC)
Test: Neovessels formation inhibition (capillary tube formation on Matrigel)
Format: cell-based
Conditions: Homo sapiens; HUVEC on Matrigel, compounds overnight; read-out: Neovessels Formation Inhibition Total Tubule Length IC50
Counter-ions that a name gives are not always drawn.
Listed here are compounds together with their documented log10 IC50.
Log10 applied to IC50; unit prior to transform: nM.

CCOc1ccc2c(Cc3cc(OC)c(OCC)c(OC)c3)cncc2c1N [Compound 18, dihydrochloride] : 1.27
CCOc1ccc2c(Cc3cc(OC)c(OC)c(OC)c3)cncc2c1NS(N)(=O)=O [Compound 8, hydrochloride] : 2.14
CC(=O)O[C@H]1C(=O)[C@@]2(C)[C@H]([C@H](OC(=O)c3ccccc3)[C@]3(O)C[C@H](OC(=O)[C@H](O)[C@@H](NC(=O)c4ccccc4)c4ccccc4)C(C)=C1C3(C)C)[C@]1(OC(C)=O)CO[C@@H]1C[C@@H]2O [Taxol, reference compound] : 0.85
CCOc1ccc2c(C(=O)c3cc(OC)c(OC)c(OC)c3)cncc2c1NS(N)(=O)=O [Compound 105, hydrochloride] : 0.91
CCCOc1c(OC)cc(C(=O)c2cncc3c(O)c(OCC)ccc23)cc1OC [Compound 67, hydrochloride] : 0.68
CCOc1ccc2c(C(=O)c3cc(OC)c(OCC)c(OC)c3)cncc2c1O [Compound 56, hydrochloride] : 1.09

Note to self: log10 IC50 recorded for CCOc1ccc2c(Cc3cc(OC)c(OC)c(OC)c3)cncc2c1N [Compound 3, dihydrochloride] was 1.34

Please fill in: log10 IC50 reported for CCOc1ccc2c(C(=O)c3cc(OC)c(OC)c(OC)c3)cncc2c1N [Compound 29, hydrochloride] = 0.17

// field: log10 IC50; key: CCOc1ccc2c(C(=O)c3cc(OC)c(OCC)c(OC)c3)cncc2c1N [Compound 58, hydrochloride] ; value = -0.23

GET /value?item= "CCOc1ccc2c(C(=O)c3cc(OC)c(OCC)c(OC)c3)cncc2c1OS(N)(=O)=O" &field=log10 IC50 returns 0.60

Recorded result, "CCOc1ccc2c(C(=O)c3cc(OC)c(OCC(C)C)c(OC)c3)cncc2c1OC(C)=O" , log10 IC50: 0.91

Value of measured log10 IC50 for the entry "CCOc1ccc2c(C(=O)c3cc(OC)c(OCC)c(OC)c3)cncc2c1NS(N)(=O)=O" : 1.40

Looking up "CCCOc1c(OC)cc(C(=O)c2cncc3c(OC(C)=O)c(OCC)ccc23)cc1OC" , I see its log10 IC50 listed as 0.63

* * *

# key: entry, value: pIC50
Test system: K562 cell line
Assay: MTT assay: cytotoxicity against the K562 cell line
Format: cell-based
Details: Homo sapiens, K562 cells, 72 h, growth inhibition
Structures can show the parent of a compound that is named as a salt.
Keep it numeric: pIC50 is minus log10 of the concentration in mol/L.

// known answers, use as guide
CCOc1ccc2c(C(=NO)c3cc(OC)c(OC)c(OC)c3)cncc2c1 [Compound 41, hydrochloride] : 6.91
C=C(c1cc(OC)c(OC)c(OC)c1)c1cncc2c(O)c(OCC)ccc12 [Compound 95, hydrochloride] : 7.30
CCOc1ccc2c(Cc3cc(OC)c(OCC(=O)OC)c(OC)c3)cncc2c1O [Compound 48, hydrochloride] : 6.09

pIC50 reported for this molecule CCOc1ccc2c(Cc3cc(N)c(OCC)c(OC)c3)cncc2c1O [Compound 75, hydrochloride] : 6.63

* * *

Biological target: colchicine site on tubulin (biotinylated porcine tubulin) (Sus scrofa, UniProt P02550+P02554)
Construct: biotin (chemical label)
Assay: Tubulin displacement assay (3H-colchicine radioligand binding, SPA)
Settings: competition with 50 nM [3H]-colchicine, 4 h at 37° C.; read-out: IC50
Where a name gives a salt, the structure may show the parent alone.
pIC50 for assorted compounds
Convention used: pIC50 is expressed as -log10 of the molar concentration.

CCOc1ccc2c(C(=O)c3cc(OC)c(OCC)c(OC)c3)cncc2c1NS(N)(=O)=O [Compound 59] : 6.13

Form field pIC50, entry COc1cc(Cc2cncc3c(OC)c(OC)ccc23)cc(OC)c1OC [Compound 10, hydrochloride] : 5.80

The compound CCOc1ccc2c(Cc3cc(OC)c(OC)c(OC)c3)cncc2c1O [Compound 1, hydrochloride] showed pIC50 equal to 6.66

// sample CCOc1ccc2c(C(=O)c3cc(OC)c(OC)c(OC)c3)cncc2c1OC(C)=O [Compound 96] , its pIC50 was 5.48

GET /value?item= CCOc1ccc2c(C(=O)c3cc(OC)c(OC)c(OC)c3)cncc2c1O [Compound 97, hydrochloride] &field=pIC50 returns 7.38

So, CCOc1ccc2c(C(=O)c3cc(OC)c(OCC)c(OC)c3)cncc2c1OS(N)(=O)=O [Compound 57] ? Its pIC50 was 7.04

Entry CCCOc1c(OC)cc(C(=O)c2cncc3c(O)c(OCC)ccc23)cc1OC [Compound 67, hydrochloride] , pIC50 reported as 7.41

The compound listed as CCOc1ccc2c(Cc3cc(OC)c(OC)c(OC)c3)cncc2c1N [Compound 3, dihydrochloride] shows pIC50 equal to 6.77
